This collection of values is drawn from ChEMBL document CHEMBL1201862.

Below, each entry is listed alongside its reported GI50.
tested on: RXF 393; test: NCI tumour cell line growth inhibition, 48 h
Activity calls are given as the source filed them. Rule as the data show it: active = GI50 up to about 1.1 µM and inactive = higher.

Solved cases (3 shown):
{"columns": ["Chemical Smiles", "Experimental Target", "GI50"],
 "data": [
  ["Nn1c(CCCCCCCCc2nnc(COc3ccc(Cl)cc3)n2N)nnc1COc1ccc(Cl)cc1", "RXF 393", "> 100 µM (inactive)"],
  ["c1ccc(Nc2nnc(Cn3ccc4ccccc43)s2)cc1", "RXF 393", "73.5 µM (inactive)"],
  ["O=C(O)CCc1nn2c(nc1=O)sc1ccc3ccccc3c12", "RXF 393", "> 100 µM (inactive)"]
]}

Now consider a different compound.
Q. Tell me the measured GI50 of N#C/C(=C\NC(=S)Nc1ccc(S(=O)(=O)Nc2ccccn2)cc1)C(N)=O , please.
A. > 100 µM (inactive)

###

system: ACHN; experiment: NCI tumour cell line growth inhibition, 48 h
Calls of active or inactive are those of the source. Cut-off read from the data, not from the text of the source: active = GI50 up to about 1.1 µM and inactive = higher.
Observable: GI50

Q. // returns reported GI50 for input COC1/C=C\OC2(C)Oc3c(C)c(O)c4c(O)c(c(/C=N\OCCCc5ccccc5)c(O)c4c3C2=O)NC(=O)/C(C)=C\C=C/C(C)C(O)C(C)C(O)C(C)C(OC(C)=O)C1C (configuration not stated)
A. 2.56 µM (inactive)

Q. Which value of GI50 has been reported for N#Cc1ccc(C(C2C(=O)NC(=O)NC2=O)C2C(=O)NC(=O)NC2=O)cc1 in the records?
A. > 100 µM (inactive)

Q. I would be grateful if you could share the reported GI50 for NC1(C(=O)O)CCCC1C(=O)O (configuration not stated) .
A. > 100 µM (inactive)

Q. // query GI50 value for entry CCCCC1C=Cn2c(=O)oc3c(OC(C)C)c(OC(C)C)c(O)c1c32 (configuration not stated)
A. 36.6 µM (inactive)

Q. Quick one: GI50 for O=c1cccccc1NCCCCCCCCCNc1cccccc1=O ?
A. 4.28 µM (inactive)

Q. Which GI50 value is on record for CCCN1C(=O)/C(=C\c2ccc(OC)c(OC)c2)S/C1=N\c1ccccc1 ?
A. > 100 µM (inactive)

Q. Would you mind telling me what GI50 value was observed for CNS(=O)(=O)NNS(=O)(=O)c1ccc(OC)cc1 ?
A. > 100 µM (inactive)

Q. Look at this molecule and give its reported GI50. CC(C)(C)C(=O)C1CC(=O)c2ccccc2C1=O (configuration not stated)
A. 44.7 µM (inactive)

Q. Give the measured GI50 of Nc1nc(Cl)c2nnn(CC3CCC(CO)C3)c2n1 (configuration not stated) .
A. > 100 µM (inactive)

Q. Item Cc1cc2nc3c(C#N)c(-c4ccccc4)cc(Nc4cccc(C(F)(F)F)c4)n3c2cc1C has what recorded GI50?
A. 3.4 µM (inactive)

Q. Can you share its GI50? I mean this molecule: CCOC(=O)C1C(=O)C=C(c2cc(C)ccc2O)CC1c1cccc(Br)c1 (configuration not stated)
A. 18.7 µM (inactive)

Q. Tell me the measured GI50 of CCCN(CCC)C1CCc2c(ccc3cc[nH]c23)C1 (configuration not stated) , please.
A. > 100 µM (inactive)

Q. May I ask what GI50 has been recorded for COc1cc2c(c(OC)c1OC)-c1c(cc3c(c1OC)OCO3)CC(C)C(C)(O)C2OC(=O)c1ccccc1 (configuration not stated) ?
A. 32 µM (inactive)

Q. # get_value(readout='GI50', item= CCOc1ccc(NC(=O)/C(CC(=O)c2c[n+]([O-])c3ccccc3[n+]2[O-])=N\OCCCc2ccccc2)cc1 )
A. > 100 µM (inactive)

Q. Fill in the blank: the reported GI50 of Cc1cc(N(CCC#N)CCC#N)ccc1C(/N=N\c1ccc(C(=O)O)cc1)=N\NC(=O)c1cc(Cl)ccc1O is ____.
A. 31.7 µM (inactive)

Q. Request the reported GI50 associated with N#CC(NNC(=O)Cc1ccccc1)c1ccc([N+](=O)[O-])cc1 (configuration not stated)
A. > 100 µM (inactive)

Q. Item under review: CCOC(=O)/C(C(=S)Nc1ccccc1)=C(/N)N1CCCC1 . Reported GI50?
A. > 100 µM (inactive)
